System: KIT
CONDITION_CONTEXT: concentration: 1 μM, replicates: in singlicate; n = 1;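 also: KINOMEscan kinase panel screen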
# note: exactly 20% is not below, so it is f; use t for %Inh strictly under it

INSERT INTO measurements (molecule, label_value) VALUES
  ('COc1ccccc1-c1ccc2c(NC(=O)C3CC3)n[nH]c2n1', 't'),
  ('Cc1ccc(-c2cc(-c3c[nH]nc3-c3ccccn3)ccn2)cc1', 'f'),
  ('Cl.O=C(Nc1cccc(-c2nn3ncccc3c2-c2ccnc(Nc3cccnc3)n2)c1)c1c(F)cccc1F', 'f'),
  ('Nc1ncnc2[nH]c(-c3ccccc3)nc12', 'f'),
  ('CCCc1ccc(S(=O)(=O)NC2CCN(c3ccnc(Nc4ccc(F)cc4)n3)C2)cc1 (centres unmarked)', 't'),
  ('COc1ccccc1CNC(=O)c1cc(C(=O)c2ccccc2C)c[nH]1', 'f'),
  ('O=c1cc(N2CCOCC2)nc2n(Cc3cccc(Cl)c3Cl)ccn12', 'f'),
  ('Cc1cccc(-c2nc(Nc3cccc(C(N)=O)c3)c3ccccc3n2)n1', 't'),
  ('O=C(Nc1ccc2c(c1)OCO2)NC1CCN(c2ccnc(Nc3ccc(F)cc3)n2)C1 (centres unmarked)', 'f'),
  ('Cc1cccc(-c2nc(Nc3ccncc3)c3ccccc3n2)n1', 't');

is_below(%Inh, 20%) for CS(=O)(=O)c1ccc(-c2nc3n(c2-c2ccncc2)CCC3)cc1 ?
t

Problem: For the molecule Cn1ccc2ncnc(Oc3ccc(NC(=O)Nc4ccccc4)cc3)c21 , is %Inh under 20%?
f

Quick check: does O=C(Nc1n[nH]c2nc(-c3nccs3)c(Br)cc12)C1CCCC1 have %Inh under 20%?
t

Consider the molecule CC1=C(C(=O)Nc2cc3cn[nH]c3cc2F)C(c2ccc(C(F)(F)F)cc2)CC(=O)N1 (centres unmarked) . Is its %Inh strictly less than 20%?
t

----------
System: PIP5K1C
CONDITION_CONTEXT: concentration: 1 μM, replicates: in singlicate; n = 1
PROPERTY_LABEL: %Inh (%)
Value expressed in %; do not type the unit.

INSERT INTO measurements (molecule, units_symbol, experimental_result) VALUES
  ('COc1cccc(NC(=O)NC2CCN(c3ccnc(Nc4ccc(F)cc4)n3)C2)c1 (centres unmarked)', '%', 59),
  ('CN1C(=O)C(Nc2ccc(Cl)c(C(=O)O)c2)=C(c2ccc(Cl)cc2)C1=O', '%', 0),
  ('Cc1csc(-c2nc(Nc3ccncc3)c3ccccc3n2)n1', '%', 29),
  ('CS(=O)(=O)c1ccc(-c2nc3n(c2-c2ccncc2)CCC3)cc1', '%', 13);

# input for lookup
Quick one: %Inh for Cn1ccc2ncnc(Oc3ccc(Nc4nc5ccccc5[nH]4)cc3)c21 ?
25

----------
Tested on: AAK1
CONDITION_CONTEXT: concentration: 1 μM, replicates: in singlicate; n = 1
PROPERTY_LABEL: %Inh (%)
Numeric only. Scale: %

Study these solved cases before continuing.
INSERT INTO measurements (compound, experimental_result) VALUES
  ('CC(=O)Nc1nc2cnc(Nc3cc(NC(=O)c4cccc(CCC#N)c4)ccc3C)nc2s1', 6),
  ('COc1cc2ncnc(Nc3ccc4nc(-c5ccccc5)[nH]c4c3)c2cc1OC.Cl', 6);

Now consider the entry below.
Bench note: what %Inh did CN(C)CCN(C)C(=O)c1cc(-c2ccncc2)c(-c2ccc(Cl)c(O)c2)o1.Cl.Cl show?
6

meta.source: paper PMC5540273
